- System: HeLa
- protocol: Cytotoxicity against human HeLa cells assessed as inhibition of cell proliferation after 72 hrs by MTT assay
- Type: functional, cell-based
quantity measured: IC50

chemical structure: COc1cc2c(O[C@@H]3OC[C@@H](OC)[C@H](OC)[C@H]3OCCCCCCCCN3CCN(C)CC3)c3c(c(-c4ccc5c(c4)OCO5)c2cc1OC)C(=O)OC3
tested on: HeLa
quantity measured: IC50
result: 0.091 µM
--
chemical structure: COc1cc2c(O[C@@H]3OC[C@@H](OC)[C@H](OC)[C@H]3OCCCCCCCN3CCN(CCO)CC3)c3c(c(-c4ccc5c(c4)OCO5)c2cc1OC)C(=O)OC3
tested on: HeLa
quantity measured: IC50
result: > 0.2 µM

Okay, next one:
Sample "COc1cc2c(O[C@@H]3OC[C@@H](OC)[C@H](OC)[C@H]3OCCCCCCCCN3CCC(O)CC3)c3c(c(-c4ccc5c(c4)OCO5)c2cc1OC)C(=O)OC3" — what was its IC50?
0.1 µM
